Values were extracted from patent US11028072B2.

experiment: in vitro
run parameters: African green monkey
pIC50: −log10 of the molar value.
Overview of reported pIC50 across a group of compounds:

Check out these entries, answers already filled in.
{"line notation": "CCc1nc(N)nc(N)c1OCc1cc(-c2ccc(C(F)(F)F)cc2)no1", "pIC50": "< 5.00"}
{"line notation": "CCc1nc(N)nc(N)c1OCc1cn(-c2cccc(C(=O)OC)c2)nn1", "pIC50": "< 4.30"}
{"line notation": "CCc1nc(N)nc(N)c1OCc1csc(-c2ccc(Br)cc2)n1", "pIC50": "< 4.60"}

With those in mind, consider the next compound.
Qu. Sample `CCc1nc(N)nc(N)c1OCc1cc(-c2cccc(OC)c2)no1` — what was its pIC50?
Ans. < 4.60
